From: ChEMBL document CHEMBL3351636

# Test system: MCF7
# protocol: Cytotoxicity against adriamycin-resistant human MCF7 cells after 48 hrs by MTT assay
# Type: functional, cell-based
# details: MCF7, 48 h
readout name: IC50 (µM)

INSERT INTO measurements (smiles_data, test_target, units_symbol, result_value) VALUES
  ('OCCCC[C@@H]1[C@H]2CCCN3CCC[C@H](CN1Cc1cccc4ccccc14)[C@@H]23', 'MCF7', 'µM', 9.51),
  ('OCCCC[C@@H]1[C@H]2CCCN3CCC[C@H](CN1Cc1c4ccccc4cc4ccccc14)[C@@H]23', 'MCF7', 'µM', 5.94);

----------
# protocol: AUC (0 to infinity) in Sprague-Dawley rat at 25 mg/kg, po as single dose
# Type: ADME, organism-based
# Parameters: time infinity, dose 25 mg/kg, route oral
# details: plasma
readout name: AUC(0-inf) (µM·h)

INSERT INTO results (smiles_data, result_value) VALUES
  ('OCCCC[C@@H]1[C@H]2CCCN3CCC[C@H](CN1Cc1c4ccccc4cc4ccccc14)[C@@H]23', 10.5);
